For each record, write down the corresponding MIC.
# System: Aspergillus fumigatus
# experimental details: Broth microdilution MIC of individual antifungals
# Format: cell-based
# setup conditions: individual antifungal, 25% PDB, about 25° C., 72 hours, range over N independent triplicate studies, read-out: Independent MIC

Below, each entry is followed by its recorded MIC result.
> print(dat)
                                   molecule              result
1                  COC(=O)Nc1nc2ccccc2[nH]1  1.56 to 3.12 µg/mL
2  COCC(=O)N(c1c(C)cccc1C)C(C)C(=O)OC (stereo not drawn) [Metalaxyl, metalaxyl]           400 µg/mL
3                         Nc1ccc2c(c1)COB2O          > 32 µg/mL
4  CC(C)NC(=O)N1CC(=O)N(c2cc(Cl)cc(Cl)c2)C1=O    12.5 to 50 µg/mL
5                          S=C(S)NCCNC(=S)S  0.78 to 1.56 µg/mL

Hey, quick one: what's MIC for each of these?
1. C=CC1(C)OC(=O)N(c2cc(Cl)cc(Cl)c2)C1=O (stereo not drawn)
2. c1ccc2[nH]c(-c3cscn3)nc2c1
3. O=C1C2CC=CCC2C(=O)N1SC(Cl)(Cl)Cl (stereo not drawn)
4. N#Cc1c[nH]cc1-c1cccc2c1OC(F)(F)O2
5. OB1OCc2cc(Cl)ccc21

1. 100 to 200 µg/mL
2. 12.5 to 50 µg/mL
3. 6.25 to 12.5 µg/mL
4. 0.25 to 1 µg/mL
5. 0.125 to 0.25 µg/mL

Hey, quick one: what's MIC for each of these?
1. CC#Cc1cc(C)nc(Nc2ccccc2)n1
2. CC(C1CC1)C(O)(Cn1cncn1)c1ccc(Cl)cc1 (stereo not drawn)
3. CC(C)(C)C(O)(CCc1ccc(Cl)cc1)Cn1cncn1 (stereo not drawn)
4. CCCC1COC(Cn2cncn2)(c2ccc(Cl)cc2Cl)O1 (stereo not drawn)

["0.05 to 0.1 µg/mL", "12.5 to 25 µg/mL", "0.78 to 1.56 µg/mL", "2.5 to 6.25 µg/mL"]

Give the measured MIC of COC(=O)NC(=S)Nc1ccccc1NC(=S)NC(=O)OC [Thiophanate-Methyl, thiophanate-methyl] .
50 to 100 µg/mL

###

# Tested on: Aspergillus flavus
# experimental details: Broth microdilution MIC of individual antifungals
# Type: cell-based
# setup conditions: individual antifungal, 25% PDB, about 25° C., 72 hours, range over N independent triplicate studies, read-out: Independent MIC
readout label: MIC

Below, each entry is followed by its recorded MIC result.
> print(dat)
                                   compound            result
1  c1ccc2[nH]c(-c3cscn3)nc2c1 [Thiabendazole]  12.5 to 40 µg/mL
2                   OB1OCc2cc(F)ccc21 [B90]    0.5 to 1 µg/mL
3  O=C1C2CC=CCC2C(=O)N1SC(Cl)(Cl)Cl (stereo not drawn) [Captan, captan]  12.5 to 25 µg/mL
4                    Cc1ccc2c(c1)COB2O [B1]           2 µg/mL
5  N#Cc1c(Cl)c(Cl)c(Cl)c(C#N)c1Cl [Chlorothalonil, chlorothalonil]  0.1 to 0.2 µg/mL

Below: the item to evaluate.
Requested read-out MIC, target or system Aspergillus flavus, entry CC(C)CC(C)c1sccc1NC(=O)c1cn(C)nc1C(F)(F)F (stereo not drawn) [Penthiopyrad, penthiopyrad]
100 µg/mL

###

# System: Fusarium graminearum
# experimental details: microbe, parasite or virus in culture
# Type: cell-based
# setup conditions: Fusarium graminearum, 72 h, read-out: Independent MIC
readout label: MIC

Below, each entry is followed by its recorded MIC result.
> print(dat)
                                   molecule  readout.label              result
1  N#Cc1c(Cl)c(Cl)c(Cl)c(C#N)c1Cl [Chlorothalonil, chlorothalonil]            MIC  0.78 to 1.56 µg/mL
2  O=C1C2CC=CCC2C(=O)N1SC(Cl)(Cl)Cl (stereo not shown) [Captan, captan]            MIC   0.78 to 0.8 µg/mL
3     CNC(=S)S [Metam Sodium, Metam sodium]            MIC    12.5 to 25 µg/mL

Hey, quick one: what's MIC for each of these?
1. COC(=O)NC(=S)Nc1ccccc1NC(=S)NC(=O)OC [Thiophanate-Methyl, thiophanate-methyl]
2. CC1(C(=O)Nc2ccc(O)c(Cl)c2Cl)CCCCC1 [Fenhexamid, fenhexamid]
3. CCCC1COC(Cn2cncn2)(c2ccc(Cl)cc2Cl)O1 (stereo not shown) [Propiconazole, propiconazole]

["100 to 400 µg/mL", "25 to 50 µg/mL", "12.5 to 25 µg/mL"]

###

# Test system: Magnaporthe grisea
# experimental details: microbe, parasite or virus in culture
# Format: cell-based
# setup conditions: Pyricularia oryzae, 72 h, read-out: Independent MIC
For each record, write down the corresponding MIC.

Below, each entry is followed by its recorded MIC result.
> print(dat)
                                   compound               result
1                        OB1OCc2cc(Cl)ccc21   0.39 to 1.56 µg/mL
2         N#Cc1c[nH]cc1-c1cccc2c1OC(F)(F)O2   0.16 to 0.31 µg/mL
3  COC(=O)N(OC)c1ccccc1COc1ccn(-c2ccc(Cl)cc2)n1  0.02 to 0.025 µg/mL
4  O=C1C2CC=CCC2C(=O)N1SC(Cl)(Cl)Cl (stereo not shown)    0.19 to 0.2 µg/mL
5                  COC(=O)Nc1nc2ccccc2[nH]1   0.39 to 0.78 µg/mL
6                          S=C(S)NCCNC(=S)S   0.78 to 1.56 µg/mL
7                   Cc1cc(C)nc(Nc2ccccc2)n1     100 to 200 µg/mL
8                         OB1OCc2cc(F)ccc21      1.25 to 2 µg/mL
9                c1ccc2[nH]c(-c3cscn3)nc2c1   1.56 to 3.13 µg/mL

Below: the item to evaluate.
Give the measured MIC of COC(=O)NC(=S)Nc1ccccc1NC(=S)NC(=O)OC [Thiophanate-Methyl, thiophanate-methyl] .
25 to 50 µg/mL

###

# Test system: Fusarium graminearum
# experimental details: microbe, parasite or virus in culture
# Assay type: cell-based
# setup conditions: Fusarium graminearum, 72 h, read-out: Independent MIC
readout label: MIC

Below, each entry is followed by its recorded MIC result.
> print(dat)
                     item.smiles       target.of.assay            result
1  CC(C)OP(=O)(OC(C)C)SCc1ccccc1  Fusarium graminearum  200 to 400 µg/mL
2                 OB1OCc2ccccc21  Fusarium graminearum      2 to 4 µg/mL
3              OB1OCc2cc(F)ccc21  Fusarium graminearum    0.5 to 2 µg/mL

Below: the item to evaluate.
Give the measured MIC of "c1ccc2[nH]c(-c3cscn3)nc2c1" .
1.5 to 3.12 µg/mL
